# Test system: Tov-21-G
# procedure_summary: Primary qHTS to identify gynecologic anti-cancer compounds using libraries of approved drugs and bioactive compounds (AID 1345084); also: nearly all actives have a fitted effect of over 55% in size
# assay_context: Gynecologic cancer cell panel viability, ATPlite luminescence, 48 h; series mostly up to 57.5 µM
Results filed as inconclusive are left out. Active and inactive are the calls of the source. Calls follow the shape of the dose curve; as a rule, active = well fitted cell-killing curve with a large enough effect; inconclusive = small, poorly fitted or top-dose-only effect, or effect the other way; inactive = flat fitted curve, though single readings scatter.
Use one of these outcomes when replying: active, inactive

A selection of reference data follows.
compound	label_class
CCCCCCCCCCCCCCCCCCNC(=O)OC1CCN(C(=O)OC[C@H](COC(=O)N(Cc2cccc[n+]2CC)C(=O)c2ccccc2OC)OC)CC1	active
O=C(CCOCCOCCOCCOCCC(=O)Nc1c(I)cc(I)c(C(=O)O)c1I)Nc1c(I)cc(I)c(C(=O)O)c1I	inactive
CC(C)=CCNc1ncnc2c1ncn2[C@@H]1O[C@H](CO)[C@@H](O)[C@H]1O	active
O=c1[nH]c2ccccc2c(=O)n1CCCl	inactive
Cc1nn(-c2ccccc2)c(C)c1/C=N/N1CCN(Cc2ccccc2)CC1	inactive

## Task Status in this test for CC(COc1ccccc1)NN (stereo not given) ?
## Result inactive

## Task Status in this test for CN(C)CCN(Cc1ccsc1)c1ccccn1 ?
## Result inactive

## Task Status in this test for Nc1c[n+](N2CCOCC2)no1 ?
## Result inactive

## Task Status in this test for CC1(C)S[C@@H]2[C@H](NC(=O)C(c3ccccc3)S(=O)(=O)O)C(=O)N2[C@H]1C(=O)O (stereo not given in full) ?
## Result inactive

## Task Status in this test for CC(=O)[C@H]1CC[C@H]2[C@@H]3C=CC4=CC(=O)CC[C@@]4(C)[C@@H]3CC[C@]12C ?
## Result inactive

---

# procedure_summary: qHTS of pediatric cancer cell lines to identify multiple opportunities for drug repurposing: Primary screen for Rh41 cells (AID 1347108); also: nearly all actives have a fitted effect of over 70% in size
# assay_context: Rh41 rhabdomyosarcoma viability, CellTiter-Glo luminescence, 48 h; series mostly up to 46 µM
Records with an inconclusive call do not appear. Active and inactive are the calls of the source. Calls come from the whole dose curve; as a rule, active = well fitted cell-killing curve with a large enough effect; inconclusive = small, poorly fitted or top-dose-only effect; inactive = no such curve, though single readings can be large or run the other way.
Use one of these outcomes when replying: active, inactive

molecule	label_class
CO[C@@H]1[C@@H](OC)[C@H](C)[C@@](O)(CC(=O)O)O[C@H]1[C@H](C)[C@H]1O[C@@]2(CC[C@@](C)([C@H]3CC[C@@](C)([C@@H]4O[C@@H]([C@H]5O[C@](C)(O)[C@H](C)C[C@@H]5C)C[C@@H]4OC4C[C@H](OC)[C@@H](OC)[C@H](C)O4)O3)O2)C[C@H](O)[C@H]1C (stereo partly specified)	active

## Task Status in this test for O=C(O)C(=O)Nc1cccc(-c2nn[nH]n2)c1 ?
## Result inactive

## Task Status in this test for COc1cc(NS(=O)(=O)c2ccc(N)cc2)nc(C)n1 ?
## Result inactive

---

# procedure_summary: qHTS assay for small molecule agonists of the antioxidant response element (ARE) signaling pathway (AID 651741); also: potency is read from the fitted curve at half-maximal effect; as to activation: % of control where 0% means no effect
# assay_context: HepG2 ARE-bla reporter, beta-lactamase FRET ratio, 16 h; series mostly up to 96 µM
# Excerpt: National Center for Advancing Translational Sciences [NCATS] NIH Chemical Genomics Center [NCGC] U.S. Environmental Protection Agency [EPA] National Institutes of Environmental Health Sciences [NIEHS] National Toxicology Program [NTP] Oxidative stress has been implicated in the pathogenesis of a variety of diseases ranging from cancer to neurodegeneration. […] The activation of the report gene under culture conditions can be detected by fluorescence intensity. […]
Records with an inconclusive call do not appear. Active and inactive are the calls of the source. Calls come from the whole dose curve; as a rule, active = well fitted activation curve with a large enough effect in the signal ratio; inconclusive = small, poorly fitted or top-dose-only effect, or effect the other way, or a change in a side signal; inactive = flat fitted curve, though single readings scatter; the % refers to the signal ratio.
reported_property: Potency

Reference set, count: 5
compound	Potency
C1=CC2C3C=CC(C3)C2C1 (centres undefined)	inactive
Nc1c2ccccc2nc2ccccc12	10.6 µM (active)
OCCOCCN1CCN(C(c2ccccc2)c2ccc(Cl)cc2)CC1 (centres undefined)	inactive
Cc1cc(C(C)(C)C)c(O)c(C(C)(C)C)c1	inactive
CN1C(=O)c2ccccc2C1=O	inactive

## Task Name the reported Potency value associated with the compound CC(C)C(C)(C)C(C)(C)C(C)(C)S
## Result inactive

## Task Name the reported Potency value associated with the compound Nc1ccc(O)cc1
## Result 26.6 µM (active)

## Task Name the reported Potency value associated with the compound Cc1ncc(CO)c(CO)c1O
## Result inactive

## Task Name the reported Potency value associated with the compound Brc1ccccc1-c1ccccc1
## Result inactive

---

# Test system: KB-3-1
# procedure_summary: Cytotoxic Profiling of Annotated Libraries Using Quantitative High-Throughput Screening (AID 1296008); also: % is scaled to controls: 0 for no effect and ±100 for the full control effect; nearly all actives have a fitted effect of over 60% in size
# assay_context: Five cell lines viability, CellTiter-Glo ATP luminescence, 48-72 h; stronger effect = lower value
Results filed as inconclusive are left out.
Below, each of the compounds is paired with its reported max response value.
Only the number, expressed in %, is required.

Reference set, count: 4
compound	unit_tag	max response
CC(=O)N[C@@H](CCC(N)=O)C(=O)O	%	-6.88
O=C1NC(c2cccc([N+](=O)[O-])c2)=CCN1c1ccccc1O	%	-1.53
CN1C(CSCC(F)(F)F)Nc2cc(Cl)c(S(N)(=O)=O)cc2S1(=O)=O (stereo not given)	%	38.2
CCCCCC[C@@H](CCC)C(=O)O	%	-12.3

// switching to the query compound
## Task Name the reported max response value associated with the compound O=C(NO)c1ccccc1
## Result -12.1

---

# procedure_summary: qHTS Assay for Lipid Storage Modulators (AID 1519)
# assay_context: Drosophila S3 cells, BODIPY lipid droplet/cell ratio, laser cytometry; measured here: cell count channel max response; cells loaded with oleic acid
Results filed as inconclusive are left out.
reported_property: max response (%)
Only the number, expressed in %, is required.

smiles_str	max response / %
OCc1c[nH]c2ccccc12	0.192
Cc1ccc(O)cc1	10.2
CCN(CC)CCOc1ccc(/C(=C(\Cl)c2ccccc2)c2ccccc2)cc1	9.36
Nc1c2ccccc2nc2ccccc12	-6.77
NCC(=O)O	5.73

## Task Name the reported max response value associated with the molecule Cn1cnc2c(NCc3ccccc3)nc(NCCO)nc21
## Result -34.4

## Task Name the reported max response value associated with the molecule O=C(O)/C=C(\CC(=O)O)C(=O)O
## Result -7.3

## Task Name the reported max response value associated with the molecule OC(CCCN1CCCCC1)(c1ccccc1)c1ccccc1
## Result 10.3

## Task Name the reported max response value associated with the molecule CN(C(=O)C(Cl)Cl)c1ccc(OC(=O)c2ccco2)cc1
## Result -11.9

## Task Name the reported max response value associated with the molecule O=C(CCCCC(=O)Nc1c(I)cc(I)c(C(=O)O)c1I)Nc1c(I)cc(I)c(C(=O)O)c1I
## Result -3.67

## Task Name the reported max response value associated with the molecule COc1cccc2c1[C@@H]1CN(CCCCn3c(=O)[nH]c4c(sc5ncc(-c6ccccc6)nc54)c3=O)C[C@@H]1CO2
## Result 7.98

---

# System: PA-1
# procedure_summary: Primary qHTS to identify gynecologic anti-cancer compounds using libraries of approved drugs and bioactive compounds (AID 1345084); also: nearly all actives have a fitted effect of over 55% in size
# assay_context: Gynecologic cancer cell panel viability, ATPlite luminescence, 48 h; series mostly up to 57.5 µM
Results filed as inconclusive are left out. Activity calls are given as the source filed them. The call rests on the fitted dose curve; in most records, active means well fitted cell-killing curve with a large enough effect; inconclusive means small, poorly fitted or top-dose-only effect, or effect the other way; inactive means flat fitted curve, though single readings scatter.
reported_property: outcome

Reference set, count: 5
molecule	reported_value
COc1ccccc1OCC1CNC(=O)O1 (stereo not given)	inactive
CO/N=C(/C(=O)N[C@@H]1C(=O)N2C(C(=O)[O-])=C(C[n+]3ccn4ncccc43)CS[C@H]12)c1nsc(N)n1	inactive
O=C(OCC(O)CO)c1ccccc1Nc1ccnc2c(C(F)(F)F)cccc12 (stereo not given)	inactive
COC(=O)c1cc(Cl)ccc1NS(=O)(=O)C(F)(F)F	inactive
CN1Cc2cc(C(=O)N3CCC(C4CCNCC4)CC3)ccc2N[C@@H](CC(=O)O)C1=O	inactive

## Task Param readout= outcome; system= PA-1; entry= O=C(O)/C=C(\CC(=O)O)C(=O)O ; returns value.
## Result inactive

## Task Param readout= outcome; system= PA-1; entry= CCCCN(CCCC)C(C(N)=O)c1ccc(OC)cc1 (stereo not given) ; returns value.
## Result inactive

## Task Param readout= outcome; system= PA-1; entry= Cc1nc([N+](=O)[O-])cn1-c1ccc([N+](=O)[O-])cc1 ; returns value.
## Result inactive

## Task Param readout= outcome; system= PA-1; entry= COC(=O)C1=C(C)NC(COC(N)=O)=C(C(=O)OC(C)C)C1c1cccc(Cl)c1Cl (stereo not given) ; returns value.
## Result inactive

## Task Param readout= outcome; system= PA-1; entry= O=C1CC2(CCCC2)CC(=O)N1 ; returns value.
## Result inactive

## Task Param readout= outcome; system= PA-1; entry= CC(C)(C)NCC(O)COc1ccccc1OCC1CCCO1 (stereo not given) ; returns value.
## Result inactive

## Task Param readout= outcome; system= PA-1; entry= CCOc1ncc(F)c(=O)[nH]1 ; returns value.
## Result inactive

## Task Param readout= outcome; system= PA-1; entry= CCCCC/C=C\C/C=C\CCCCCCCC(=O)NC(C)c1ccccc1 (stereo not given) ; returns value.
## Result inactive

## Task Param readout= outcome; system= PA-1; entry= CC1CCCCN1CCCOC(=O)c1ccc(OC2CCCCC2)cc1 (stereo not given) ; returns value.
## Result inactive
